# credit: patent US5624917A

target: squalene synthetase (Homo sapiens); construct: From the resulting sonicate, microsome fraction was obtained according to the same manner as that described in Experiment 1; endogenous in cells; host or cells: HepG2 human hepatoma cells (microsome fraction); assay: Squalene synthetase inhibitory activity, human enzyme (HepG2 microsome fraction); assay type: biochemical; conditions: human hepatoma HepG2 microsome fraction; 5 μM [1-3H]farnesylpyrophosphoric acid, pH 7.4, 37° C., 45 minutes; read-out: IC50, squalene synthetase inhibitory activity, Human enzyme
Sequence (P37268 whole entry): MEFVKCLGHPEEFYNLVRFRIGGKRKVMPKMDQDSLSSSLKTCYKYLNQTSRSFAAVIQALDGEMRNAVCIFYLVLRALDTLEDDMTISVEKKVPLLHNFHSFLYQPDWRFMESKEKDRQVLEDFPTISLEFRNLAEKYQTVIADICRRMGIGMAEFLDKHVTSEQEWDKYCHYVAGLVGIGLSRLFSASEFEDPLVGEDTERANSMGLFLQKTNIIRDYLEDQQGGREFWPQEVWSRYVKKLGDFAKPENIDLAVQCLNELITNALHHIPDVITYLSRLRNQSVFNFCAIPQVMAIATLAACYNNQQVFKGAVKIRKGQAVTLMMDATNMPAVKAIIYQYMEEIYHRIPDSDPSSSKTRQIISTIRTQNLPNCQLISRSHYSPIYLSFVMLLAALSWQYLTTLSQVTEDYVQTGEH
Assign classes using reported IC50 values and the ranges low = under 8 nM, medium = from 8 nM up to 100 nM, high = 100 nM and over, please.

Recorded results for 2 compounds are shown here.
- CCOP(=O)(OCC)C(NCCCCCCSc1ccccc1)P(=O)(OCC)OCC: high
- O=P(O)(O)C(NCCCCSc1ccccn1)P(=O)(O)O: high

Now consider a different compound.
Category of COc1ccc(CSCCCCCCNC(P(=O)(O)O)P(=O)(O)O)cc1 , please.
medium

====

Biological target: squalene synthetase (Rattus norvegicus, UniProt Q02769)
Construct: from tissue; host or cells: liver of male SD rats (microsome fraction)
Sequence (Q02769 whole entry): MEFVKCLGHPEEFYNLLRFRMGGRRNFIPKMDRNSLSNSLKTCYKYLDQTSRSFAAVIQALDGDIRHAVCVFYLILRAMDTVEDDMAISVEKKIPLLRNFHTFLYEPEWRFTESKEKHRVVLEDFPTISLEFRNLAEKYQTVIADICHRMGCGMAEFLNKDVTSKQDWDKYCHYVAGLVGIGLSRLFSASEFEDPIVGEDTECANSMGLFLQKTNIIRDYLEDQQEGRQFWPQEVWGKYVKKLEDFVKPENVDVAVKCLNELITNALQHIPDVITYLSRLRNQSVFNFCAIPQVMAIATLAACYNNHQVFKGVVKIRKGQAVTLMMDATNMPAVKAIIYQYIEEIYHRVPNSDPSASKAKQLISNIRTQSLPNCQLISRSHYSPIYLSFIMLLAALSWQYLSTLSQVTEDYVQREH
Test: Squalene synthetase inhibitory activity, rat enzyme (rat liver microsome fraction)
Type: biochemical
Details: 5 μM [1-3H]farnesylpyrophosphoric acid, pH 7.4, 37° C., 45 minutes, read-out: IC50, squalene synthetase inhibitory activity, Rat enzyme
Procedure: Squalene synthetase inhibitory activity and cholesterol biosynthesis inhibitory activity of the compounds used in the present invention were determined by the following method. Determination of squalene synthetase inhibitory activity The squalene synthetase inhibitory activity was determined as follows by using the enzyme solutions shown in Experiments 1 and 2 below. […]
As shown below, each of these compounds has a reported log10(IC50) value.
Please keep in mind that the values are log10 of IC50 expressed in µM.

Quickly give me recorded log10(IC50) for O=P(O)(O)C(NCCCCS(=O)(=O)c1ccccc1)P(=O)(O)O
0.81

Quickly give me recorded log10(IC50) for CCSCCCCNC(P(=O)(O)O)P(=O)(O)O
-0.43

Read the entry CC(C)=CCC/C(C)=C/CNC(P(=O)(O)O)P(=O)(O)O and write its reported log10(IC50).
-1.57

Return the recorded log10(IC50) value; entry: O=P(O)(O)C(NCCCCCCCCCCSc1ccccc1)P(=O)(O)O
-3.24

Consider the compound O=P(O)(O)C(NCCCCCOc1ccccc1)P(=O)(O)O . State its measured log10(IC50).
-2.09

Answer with reported log10(IC50) of CC(C)CCCC(C)CCCC(C)CCNC(P(=O)(O)O)P(=O)(O)O (centres unmarked)
-2.37

Supply reported log10(IC50) belonging to this compound: O=P(O)(O)C(NCCCCCSc1ccccc1)P(=O)(O)O [compound 6]
-2.24

====

system: cholesterol biosynthesis; test: Cholesterol biosynthesis inhibitory activity: cholesterol synthesis from [2-14C] acetic acid in rat liver slices; format: cell-based; conditions: 37° C., 2 hours, No addition = 100 ± 0
ENDPOINT NAME: activity at 20 µM (%)
Report the figure in % without appending any unit label.

* O=P(O)(O)C(NCCCCCCSc1nccs1)P(=O)(O)O [compound 74] | 35.8
* O=P(O)(O)C(NCCCCCCSc1ccccc1)P(=O)(O)O [compound 22] | 52.9
* COc1ccc(CSCCCCCCNC(P(=O)(O)O)P(=O)(O)O)cc1 [compound 67] | 43.4

Attention now shifts to the item below.
Please supply the value of reported activity at 20 µM for the item Cc1nnc(SCCCCCCNC(P(=O)(O)O)P(=O)(O)O)s1 [compound 75]
50
